Numbers sourced from ChEMBL document CHEMBL1909633.

test system: RAW264.7; test: Antiinflammatory action in mouse RAW264.7 cells assessed as inhibition of LPS-induced nitric oxide production treated 30 mins before LPS challenge measured after 24 hrs by griess reaction; format: functional, cell-based
Listed here are molecules together with their documented IC50.
MEASURED_QUANTITY: IC50

1. C=C1C(=O)O[C@H]2C[C@@H](C)[C@@H]3CCC(=O)[C@@]3(C)[C@@H](OC(C)=O)[C@H]12 [ERGOLIDE]: 3.9 µM
2. C=C1C(=O)O[C@H]2[C@H]1[C@@H](O)C[C@@H](C)[C@@H]1C=CC(=O)[C@]12C: 3.5 µM
3. C=C1C(=O)O[C@H]2C=C(C)[C@@H]3[C@@H]([C@@H](O)[C@H]12)[C@](C)(O)C[C@@H]3OC(C)=O: 9.2 µM
4. C=C1C(=O)O[C@H]2C[C@@H](C)[C@@H]3CCC(=O)[C@@]3(C)C[C@H]12 [GRAVEOLIDE]: 9.2 µM
5. C=C1C(=O)O[C@H]2C=C(C)[C@H]3CC[C@](C)(O)[C@@H]3C[C@H]12: 6.3 µM
6. C[C@@H]1C[C@@H]2OC(=O)[C@H](C)[C@H]2[C@H](O)[C@]2(C)C(=O)CC[C@@H]12: 19.8 µM
7. C=C1C(=O)O[C@H]2C[C@@H](C)[C@@H]3C=CC(=O)[C@@]3(C)[C@@H](O)[C@H]12: 1.1 µM
8. C=C1C(=O)O[C@H]2C[C@@H](C)[C@@H]3[C@H](OC)CC(=O)[C@@]3(C)[C@@H](O)[C@H]12: 5.1 µM
9. C=C1C(=O)O[C@H]2C[C@@H](C)[C@@H]3[C@H](OC)CC(=O)[C@@]3(C)[C@@H](OC(C)=O)[C@H]12: 2.2 µM
10. C=C1C(=O)O[C@H]2C[C@@H](C)[C@@H]3[C@H](OCC)CC(=O)[C@@]3(C)[C@@H](O)[C@H]12: 3.8 µM
11. C[C@@H]1C[C@@H]2OC(=O)[C@@H](C)[C@H]2[C@H](O)[C@]2(C)C(=O)C=C[C@@H]12: 10.5 µM
12. N=C(N)NN: 7.9 µM
13. C=C1C(=O)O[C@H]2C[C@@H](C)[C@@H]3[C@@H](OC)CC(=O)[C@@]3(C)[C@@H](OC(C)=O)[C@H]12: 1.5 µM
14. C=C1C(=O)O[C@H]2CC(=C)[C@H]3CC[C@@](C)(O)[C@@H]3C[C@H]12 [INUVISCOLIDE]: 21.9 µM
15. C=C1C[C@H]2OC(=O)C(=C)[C@H]2C[C@@H]2[C@@H]1CC[C@@]2(C)O: 8 µM
